Data provenance is PubChem BioAssay AID588850.

# test-name: NF-kB reporter blockers in CF airway cells – cell-based, GFP fluorescence, uHTS, primary screen (AID 588850);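 further: PAF is a Pseudomonas aeruginosa culture filtrate used as stimulus; plate controls were PAF-stimulated DMSO wells for no effect and unstimulated DMSO wells for full effect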
# study-conditions: KKLEB NF-kB-GFP reporter, PAF-induced, GFP fluorescence overnight; at 5 µM
The whole screen tested about 360,000 compounds, of which about 3,100 (0.86%) were called active.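 How the source made its calls: active means at least 50% inhibition at 5 µM, scaled per plate between neutral and stimulator controls; inactive means the rest.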 Shown is part of a subset that was picked to be rich in actives.
Outcomes: yes (1) (active), no (0) (inactive)

* CCOC(=O)CN1C(=O)C(O)(CC(=O)c2ccccn2)c2ccccc21 (stereo not given) | no (0)
* O=C(NNC(=O)c1ccc(-n2cncn2)c([N+](=O)[O-])c1)c1ccccc1 | no (0)
* CC(C)n1cnc2c(Nc3cccc(Cl)c3)nc(N(CCO)CCCO)nc21 | yes (1)
* CN1c2ccc(C=O)c3c(C=O)ccc(c23)N(C)C1(C)C | yes (1)
* O=C(NC(Nc1nc2ccc([N+](=O)[O-])cc2s1)(C(F)(F)F)C(F)(F)F)c1ccccc1 | yes (1)

###

Measured inhibition by item
# test-name: NF-kB reporter blockers in CF airway cells – cell-based, GFP fluorescence, uHTS, primary screen (AID 588850);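 further: PAF is a Pseudomonas aeruginosa culture filtrate used as stimulus; plate controls were PAF-stimulated DMSO wells for no effect and unstimulated DMSO wells for full effect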
# study-conditions: KKLEB NF-kB-GFP reporter, PAF-induced, GFP fluorescence overnight; at 5 µM; active compounds read high
Among all 360,000 compounds or so, about 3,100 (0.86%) were called active. Many of the other results were omitted from the sample, so actives are more common in it than they were.
quantity: inhibition (%)

- COC(=O)c1ccc(NC(=O)c2ccccc2NS(=O)(=O)c2ccccc2)cc1: 59.8
- COc1ccc(C(N)c2csc(NC(=O)Nc3cccc(C(F)(F)F)c3)n2)cc1 (configuration not stated): 24.7
- CN(C)C(=O)Cn1c(=O)n(S(=O)(=O)c2ccccc2)c2ccccc21: 5.9
- CC(C)(C)C(=O)CCN1C(=O)C2(OCCO2)c2ccccc21: -2.6
- COc1cc(NC(=O)c2[nH]cnc2C(N)=O)cc(C(=O)Nc2cccc(C(F)(F)F)c2)c1: 53.2
- COc1ccc(CCNC(=O)Nc2ccc3c(c2)c(=O)n(C)n3C)cc1OC: 14.5
- O=C(C1CCCO1)N1CCN(C(=S)NC2CC2)CC1 (configuration not stated): 3.7
- Cc1nc(N2CCN(c3ccccn3)CC2)c2c(C)c(C(=O)Nc3ccc(F)c(Cl)c3)sc2n1: 36.8
- O=C(Nc1ccc2c(c1)OCO2)C1CC(c2c(F)cccc2Cl)=NO1 (configuration not stated): 13.8
- CN(CCc1ccccn1)S(=O)(=O)c1ccc2c3c(cccc13)C(=O)N2: 5.4
- O=C(Nc1cccc2ccccc12)c1onc2c1CCCC2: -10.2
- Cc1c(C)c2ccc(OCC(=O)N3CCN(c4cccc(Cl)c4)CC3)cc2oc1=O: 63.5
- O=C(Nc1cccnc1)c1noc2c1CCCCC2: -3.7
- COc1ccc(NC(=O)CSCc2ccc([N+](=O)[O-])cc2)cc1OC: 2.8
- COc1ccc(NC(=S)SC)cc1OC: 59.7
- CCN1C(=O)c2cccc3c(S(=O)(=O)Nc4ccccc4O)ccc1c23: -71.5
- O=[N+]([O-])c1cc(S(=O)(=O)Nc2cccc(Cl)c2)ccc1N=Nc1c(O)[nH]c2ccccc12: 80
- Nc1ccc(S(=O)(=O)Nc2nccc(/C=C/c3ccc(Br)s3)n2)cc1: 14.6
- COc1ccc(NC(=O)c2sc3nc(C)nc(N4CCN(c5ccccn5)CC4)c3c2C)c(OC)c1: 53.3
- Cc1nc(N2CCC(C)CC2)c2c(C)c(C(=O)Nc3cc(F)ccc3C)sc2n1: 27.1
- Oc1cccc2ccc(/C=C/c3ccc(Br)s3)nc12: 82.5
- COc1ccc(NC(=O)C2C3CCC(O3)C2C(=O)O)cc1OC (configuration not stated): -25.3
